# Tested on: CCRF-CEM human T-cell acute lymphoblastic leukemia cell line
# assay_name: XTT cytotoxicity (cell growth inhibition), CCRF-CEM
# measurement_parameters: Table 7; CEM; listed as 6
quantity_kind: IC50 (nM)
Give just the numeric value; nM need not be written.

Recorded IC50 (compound CC(=Cc1csc(C)n1)C1CC=CCCCC(C)C(O)C(C)C(=O)C(C)(C)C(O)CC(=O)O1 (stereo not shown) ): 52

====

# Tested on: A549 Human Lung Carcinoma
# assay_name: A549 xenograft
# Type: in vivo, nude mice
# measurement_parameters: Q2D x 3: dEpoB 30 mg/kg 18 hr i.v. infusion, Taxol 15 mg/kg 6 hr infusion, VBL 2 and VP-16 25 mg/kg i.v. inj
quantity_kind: Average Body Weight (change), Day 13 (g)
Reply numerically in g, unit not repeated.

Reference set (2 entries):
[[record]]
molecule = "COc1cc([C@@H]2c3cc4c(cc3[C@@H](O[C@@H]3O[C@@H]5CO[C@@H](C)O[C@H]5[C@H](O)[C@H]3O)[C@H]3COC(=O)[C@H]23)OCO4)cc(OC)c1O [Etoposide, etoposide]"
observed_value = -0.2

[[record]]
molecule = "C/C1=C/C[C@@H](/C(C)=C/c2csc(C)n2)OC(=O)C[C@H](O)C(C)(C)C(=O)[C@H](C)[C@@H](O)[C@@H](C)CCC1 [Desoxyepothilone B, desoxyepothilone B]"
observed_value = -5.8


Could you now look at the following molecule, please?
For this molecule ( CC(=O)O[C@H]1C(=O)[C@@]2(C)[C@H]([C@H](OC(=O)c3ccccc3)[C@]3(O)C[C@H](OC(=O)[C@H](O)[C@@H](NC(=O)c4ccccc4)c4ccccc4)C(C)=C1C3(C)C)[C@]1(OC(C)=O)CO[C@@H]1C[C@@H]2O [Taxol ®, paclitaxel] ), measured Average Body Weight (change), Day 13 is -0.8

====

# Tested on: DC-3F hamster lung fibroblast cell line
# assay_name: SRB cytotoxicity, DC-3F
# Assay type: cell-based
# measurement_parameters: Table 1C; SRB, 72 h; read-out: IC50
This listing pairs compounds with measured IC50.
Express your answer in nM, writing the number without its unit.

Answered cases to consult:
[[record]]
chemical_smiles = "C/C1=C/C[C@@H](/C(C)=C/c2csc(C)n2)OC(=O)C[C@H](O)C(C)(C)C(=O)[C@H](C)[C@@H](O)[C@@H](C)CCC1"
experimental_target = "DC-3F hamster lung fibroblast cell line"
quantity_kind = "IC50"
value_unit = "nM"
observed_value = 0.97

[[record]]
chemical_smiles = "C/C(=C\\c1csc(C)n1)[C@@H]1C/C=C\\CCC[C@H](C)[C@H](O)[C@@H](C)C(=O)C(C)(C)[C@@H](O)CC(=O)O1"
experimental_target = "DC-3F hamster lung fibroblast cell line"
quantity_kind = "IC50"
value_unit = "nM"
observed_value = 11


Now let's try a different one.
Measured IC50 of C/C(=C\c1csc(C)n1)[C@@H]1C[C@@H]2O[C@@H]2CCC[C@H](C)[C@H](O)[C@@H](C)C(=O)C(C)(C)[C@@H](O)CC(=O)O1 : 3.7

====

Catalogue of IC50 values
# Tested on: CCRF-CEM/VM1
# assay_name: cells
# Assay type: cell-based, human
# measurement_parameters: Table 1A; XTT, 72 h; read-out: IC50
Starred links: 1 amine or outer side, 2 acyl side, 3 side chain; linkers in the order of their positions; H or OH if unused. Positions of bridges follow the written chain, without caps; N, C: chain ends. Non-standard residues stand in square brackets, D forms with d. Residues, ends and D or L forms follow the SMILES beside them. Chains are numbered I, II in the order given. Actinocin(9to1) = Cc1c2oc3c(C)ccc(C(=O)[*:1])c3nc-2c(C(=O)[*:2])c(N)c1=O; NMeV = CN[C@H](C(=O)O)C(C)C; Sar = CNCC(=O)O
Value expressed in nM; do not type the unit.

[[record]]
compound = "C/C(=C\\c1csc(C)n1)[C@@H]1C[C@@H]2O[C@@H]2CCC[C@H](C)[C@H](O)[C@@H](C)C(=O)C(C)(C)[C@@H](O)CC(=O)O1"
observed_value = 6.1


Could you now look at the following compound, please?
The compound listed as Cc1c2oc3c(C)ccc(C(=O)N[C@@H]4C(=O)N[C@H](C(C)C)C(=O)N5CCC[C@H]5C(=O)N(C)CC(=O)N(C)[C@@H](C(C)C)C(=O)O[C@@H]4C)c3nc-2c(C(=O)N[C@@H]2C(=O)N[C@H](C(C)C)C(=O)N3CCC[C@H]3C(=O)N(C)CC(=O)N(C)[C@@H](C(C)C)C(=O)O[C@@H]2C)c(N)c1=O [Actinomycin D, actinomycin D] (I: T[dV]P[Sar][NMeV] / II: T[dV]P[Sar][NMeV]; ester I:1-I:C, II:1-II:C; linker I:N-II:N via Actinocin(9to1)) has a reported IC50 of 0.27
